Consider the following compounds and their measured MIC readings.
# Tested on: carbapenem-susceptible A. baumannii isolates (n = 54)
# method_notes: MIC, broth microdilution (EUCAST), carbapenem-susceptible A. baumannii isolates
# Format: cell-based, Acinetobacter baumannii
# assay_conditions: Acinetobacter baumannii, isolate Ab130; ST 32; ADC-79, OXA-100; in combinations ETZ fixed at 8 mg/L
Entry rule: numbers only, all in µg/mL.

Example cases with answers are listed next.
| compound | MIC, µg/mL |
| --- | --- |
| CC1(C)[C@H](C(=O)O)N2C(=O)C[C@H]2S1(=O)=O [sulbactam] | 2 |
| C[C@@H](O)[C@H]1C(=O)N2C(C(=O)O)=C(SCCN=CN)C[C@H]12 [imipenem] | 0.12 |
| CO/N=C(\C(=O)N[C@@H]1C(=O)N2C(C(=O)[O-])=C(C[N+]3(C)CCCC3)CS[C@H]12)c1csc(N)n1 [cefepime] | 4 |

Lab note: next compound to report on.
Exercise: # input compound: C[n+]1ccn(C[C@@]2(C)[C@H](C(=O)[O-])N3C(=O)C[C@H]3S2(=O)=O)n1 [enmetazobactam] ; wanted: its MIC
Key: 2

---

# Test system: carbapenem-resistant A. baumannii (CRAB) isolates (n = 67)
# method_notes: MIC, broth microdilution (EUCAST), carbapenem-resistant A. baumannii isolates
# Type: cell-based, Acinetobacter baumannii
# assay_conditions: Acinetobacter baumannii, isolate Ab56; ST 1; ADC-75, OXA-69, OXA-23; ETZ fixed 8 mg/L in combinations
metric_name: MIC (µg/mL)
Hi! Could you send only the number? It should be in µg/mL, unit omitted.

| molecule | MIC, µg/mL |
| --- | --- |
| C[C@@H](O)[C@H]1C(=O)N2C(C(=O)O)=C(SCCN=CN)C[C@H]12 [imipenem] | 16 |
| CC1(C)[C@H](C(=O)O)N2C(=O)C[C@H]2S1(=O)=O [sulbactam] | 8 |
| C[n+]1ccn(C[C@@]2(C)[C@H](C(=O)[O-])N3C(=O)C[C@H]3S2(=O)=O)n1 [enmetazobactam] | 64 |

Exercise: Fill in the blank: the reported MIC of CO/N=C(\C(=O)N[C@@H]1C(=O)N2C(C(=O)[O-])=C(C[N+]3(C)CCCC3)CS[C@H]12)c1csc(N)n1 [cefepime] is ____.
Key: 32

---

We begin with a simple list: items and their reported MIC.
# Test system: carbapenem-susceptible A. baumannii isolates (n = 54)
# method_notes: MIC, broth microdilution (EUCAST), carbapenem-susceptible A. baumannii isolates
# Format: cell-based, Acinetobacter baumannii
# assay_conditions: Acinetobacter baumannii, isolate Ab132; ST 1112; ADC-79, OXA-89; in combinations ETZ fixed at 8 mg/L
The reply should be a number in µg/mL, with the unit left off.

Look over these answered cases.
| compound | unit_abbreviation | MIC |
| --- | --- | --- |
| CC1(C)[C@H](C(=O)O)N2C(=O)C[C@H]2S1(=O)=O | µg/mL | 2 |
| C[C@@H](O)[C@H]1C(=O)N2C(C(=O)O)=C(SCCN=CN)C[C@H]12 | µg/mL | 0.12 |
| CO/N=C(\C(=O)N[C@@H]1C(=O)N2C(C(=O)[O-])=C(C[N+]3(C)CCCC3)CS[C@H]12)c1csc(N)n1 [cefepime] | µg/mL | 4 |

Turning now to a further compound:
Exercise: Item C[n+]1ccn(C[C@@]2(C)[C@H](C(=O)[O-])N3C(=O)C[C@H]3S2(=O)=O)n1 has what recorded MIC?
Key: 2

---

# Test system: carbapenem-susceptible A. baumannii isolates (n = 54)
# method_notes: MIC, broth microdilution (EUCAST), carbapenem-susceptible A. baumannii isolates
# Assay type: cell-based, Acinetobacter baumannii
# assay_conditions: Acinetobacter baumannii, isolate Ab190; ST 2186; ADC-6, OXA-413; in combinations ETZ fixed at 8 mg/L
# Method: The bacterial strains used in this study comprised 208 clinical isolates from the Spanish National Acinetobacter spp. […] The antimicrobial susceptibility of the 208 Acinetobacter spp. isolates was assessed using the broth microdilution method, as described in the European Committee on Antimicrobial Susceptibility Testing (EUCAST) v.15 guidelines (http://www.eucast.org/clinical_breakpoints). […] MICs for enmetazobactam alone were assessed as well. […]
metric_name: MIC (µg/mL)
Number in µg/mL, nothing else.

Sample records with MIC:
| compound | metric_name | unit_abbreviation | recorded_result |
| --- | --- | --- | --- |
| C[n+]1ccn(C[C@@]2(C)[C@H](C(=O)[O-])N3C(=O)C[C@H]3S2(=O)=O)n1 | MIC | µg/mL | 2 |
| CO/N=C(\C(=O)N[C@@H]1C(=O)N2C(C(=O)[O-])=C(C[N+]3(C)CCCC3)CS[C@H]12)c1csc(N)n1 [cefepime] | MIC | µg/mL | 1 |

Exercise: Any idea what MIC was measured for CC1(C)[C@H](C(=O)O)N2C(=O)C[C@H]2S1(=O)=O ?
Key: 0.5

Exercise: What value of measured MIC is listed for C[C@@H](O)[C@H]1C(=O)N2C(C(=O)O)=C(SCCN=CN)C[C@H]12 ?
Key: 0.25

---

Consider the following molecules and their measured MIC readings.
# Tested on: carbapenem-susceptible A. baumannii isolates (n = 54)
# method_notes: MIC, broth microdilution (EUCAST), carbapenem-susceptible A. baumannii isolates
# Format: cell-based, Acinetobacter baumannii
# assay_conditions: Acinetobacter baumannii, isolate Ab187; ST 105; ADC-2, OXA-430; in combinations ETZ fixed at 8 mg/L
Numbers only; they are read as µg/mL.

Worked cases, MIC given:
| molecule | target_under_test | unit_abbreviation | MIC |
| --- | --- | --- | --- |
| C[n+]1ccn(C[C@@]2(C)[C@H](C(=O)[O-])N3C(=O)C[C@H]3S2(=O)=O)n1 | carbapenem-susceptible A. baumannii isolates (n = 54) | µg/mL | 2 |
| CC1(C)[C@H](C(=O)O)N2C(=O)C[C@H]2S1(=O)=O | carbapenem-susceptible A. baumannii isolates (n = 54) | µg/mL | 1 |

Here is another molecule to look at.
Exercise: Sample CO/N=C(\C(=O)N[C@@H]1C(=O)N2C(C(=O)[O-])=C(C[N+]3(C)CCCC3)CS[C@H]12)c1csc(N)n1 [cefepime] — what was its MIC?
Key: 0.5

---

# Tested on: A. non-baumannii isolates (n = 87)
# method_notes: MIC, broth microdilution (EUCAST), A. non-baumannii isolates
# Assay type: cell-based, Acinetobacter spp. (non-baumannii)
# assay_conditions: Acinetobacter pittii, isolate NO-Ab59, Acinetobacter pittii; in combinations ETZ fixed at 8 mg/L; read-out: MIC
Let's look at some molecules and their measured MIC.
Express it in mg/L; write the number only.

Here are 3 molecules together with their reported answers.
| molecule | unit_abbreviation | MIC |
| --- | --- | --- |
| CC1(C)[C@H](C(=O)O)N2C(=O)C[C@H]2S1(=O)=O [sulbactam] | mg/L | 1 |
| CO/N=C(\C(=O)N[C@@H]1C(=O)N2C(C(=O)[O-])=C(C[N+]3(C)CCCC3)CS[C@H]12)c1csc(N)n1 [cefepime] | mg/L | 2 |
| C[C@@H](O)[C@H]1C(=O)N2C(C(=O)O)=C(SCCN=CN)C[C@H]12 [imipenem] | mg/L | 0.25 |

Exercise: Give its MIC value. Item: C[n+]1ccn(C[C@@]2(C)[C@H](C(=O)[O-])N3C(=O)C[C@H]3S2(=O)=O)n1 [enmetazobactam]
Key: 2

---

# System: carbapenem-susceptible A. baumannii isolates (n = 54)
# method_notes: MIC, broth microdilution (EUCAST), carbapenem-susceptible A. baumannii isolates
# Type: cell-based, Acinetobacter baumannii
# assay_conditions: Acinetobacter baumannii, isolate Ab206; ST 2187; ADC-58, OXA-69; in combinations ETZ fixed at 8 mg/L
metric_name: MIC
Remember to put the unit after the number in your answer.

| molecule | MIC |
| --- | --- |
| C[C@@H](O)[C@H]1C(=O)N2C(C(=O)O)=C(SCCN=CN)C[C@H]12 [imipenem] | 0.25 µg/mL |
| C[n+]1ccn(C[C@@]2(C)[C@H](C(=O)[O-])N3C(=O)C[C@H]3S2(=O)=O)n1 [enmetazobactam] | 2 µg/mL |
| CC1(C)[C@H](C(=O)O)N2C(=O)C[C@H]2S1(=O)=O [sulbactam] | 0.5 µg/mL |

Could you now look at the following molecule, please?
Exercise: Entry CO/N=C(\C(=O)N[C@@H]1C(=O)N2C(C(=O)[O-])=C(C[N+]3(C)CCCC3)CS[C@H]12)c1csc(N)n1 [cefepime] has what MIC?
Key: 1 µg/mL

---

# Test system: carbapenem-susceptible A. baumannii isolates (n = 54)
# method_notes: MIC, broth microdilution (EUCAST), carbapenem-susceptible A. baumannii isolates
# Assay type: cell-based, Acinetobacter baumannii
# assay_conditions: Acinetobacter baumannii, isolate Ab95; ST 582; ADC-5, OXA-317; in combinations ETZ fixed at 8 mg/L
metric_name: MIC (µg/mL)
Please state the figure in µg/mL; there is no need to write the unit.

| compound | MIC [µg/mL] |
| --- | --- |
| CC1(C)[C@H](C(=O)O)N2C(=O)C[C@H]2S1(=O)=O | 1 |
| C[n+]1ccn(C[C@@]2(C)[C@H](C(=O)[O-])N3C(=O)C[C@H]3S2(=O)=O)n1 | 2 |
| CO/N=C(\C(=O)N[C@@H]1C(=O)N2C(C(=O)[O-])=C(C[N+]3(C)CCCC3)CS[C@H]12)c1csc(N)n1 [cefepime] | 2 |

Exercise: Fill in: MIC of C[C@@H](O)[C@H]1C(=O)N2C(C(=O)O)=C(SCCN=CN)C[C@H]12 is ___
Key: 0.12
